# targetSystem: mMC5R (Mus musculus)
# Sequence (P41149 whole entry): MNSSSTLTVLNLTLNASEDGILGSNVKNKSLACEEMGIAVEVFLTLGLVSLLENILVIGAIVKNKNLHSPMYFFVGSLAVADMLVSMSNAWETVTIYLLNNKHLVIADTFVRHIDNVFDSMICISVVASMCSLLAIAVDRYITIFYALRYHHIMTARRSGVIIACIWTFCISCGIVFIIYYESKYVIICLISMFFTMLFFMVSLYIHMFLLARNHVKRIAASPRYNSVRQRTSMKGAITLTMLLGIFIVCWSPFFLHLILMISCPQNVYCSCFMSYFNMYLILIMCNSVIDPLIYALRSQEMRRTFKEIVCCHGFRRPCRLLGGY
# measurementNotes: AlphaScreen cAMP agonist assay at mMC5R
# conditionParameters: read-out: percent of the NDP-MSH maximal positive control, Table 2
Square brackets hold non-standard residues; d marks the D form. Peptide text beside a SMILES is read from it. dPhe(4-I) = N[C@H](Cc1ccc(I)cc1)C(=O)O; 2Nal = N[C@@H](Cc1ccc2ccccc2c1)C(=O)O
parameter: activation at 100 µM (%)
// return numeric value only (unit: %, not printed)

Please look up its activation at 100 µM: CC(=O)N[C@@H](Cc1ccc2ccccc2c1)C(=O)N[C@@H](CCCNC(=N)N)C(=O)N[C@H](Cc1ccc(I)cc1)C(=O)N[C@@H](Cc1ccccc1)C(N)=O [SKY4-48-32, Ac-Nal(2′)-Arg-(pI)DPhe-Phe-NH2] (Ac-[2Nal]R[dPhe(4-I)]F-NH2)
49
